Form field: EC50 of PTH(1-34), cAMP assay, with 267 nM IgG (one value per entry).
System Tested: T1, mouse PTH1R overexpressed on CHO cells (mouse, UniProt P41593 27-591)
T1 sequence (looked up): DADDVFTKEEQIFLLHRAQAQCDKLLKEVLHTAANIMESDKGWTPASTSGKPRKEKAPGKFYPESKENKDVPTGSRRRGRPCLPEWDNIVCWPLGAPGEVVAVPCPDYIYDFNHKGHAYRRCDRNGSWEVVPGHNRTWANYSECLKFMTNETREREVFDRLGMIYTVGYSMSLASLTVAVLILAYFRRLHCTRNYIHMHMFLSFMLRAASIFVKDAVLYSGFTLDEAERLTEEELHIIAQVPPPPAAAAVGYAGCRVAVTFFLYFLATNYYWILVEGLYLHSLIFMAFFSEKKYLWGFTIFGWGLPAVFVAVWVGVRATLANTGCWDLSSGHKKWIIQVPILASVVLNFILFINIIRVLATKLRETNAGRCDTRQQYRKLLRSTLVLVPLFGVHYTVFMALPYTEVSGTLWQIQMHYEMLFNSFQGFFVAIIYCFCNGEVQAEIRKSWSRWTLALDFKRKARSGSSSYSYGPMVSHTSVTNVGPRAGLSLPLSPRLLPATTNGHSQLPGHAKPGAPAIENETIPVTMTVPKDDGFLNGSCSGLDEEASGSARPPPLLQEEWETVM
Protocol Details: cell-based or functional assay
Supply the numeric figure in nM, leaving out any unit text.

INSERT INTO assay_data (binder, unit_symbol, obs_value) VALUES
  ('XPA.85.338 (antibody, V domains shown, Light-chain-shuffled variant of XPA.85.017) VH: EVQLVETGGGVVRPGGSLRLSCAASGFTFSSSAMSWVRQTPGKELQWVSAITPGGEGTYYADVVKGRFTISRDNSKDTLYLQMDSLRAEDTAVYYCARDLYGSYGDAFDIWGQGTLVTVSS VL: SYELTQPPSVSVAPGQTATITCSGDKLGDKYASWYQQKPGQSPVLVMFENRDRPSGIPDRFSGSNSGNTATLTISGTQAMDEADYYCQAWDSSTAWVFGGGTQLTVL', 'nM', 1.8),
  ('XPA.85.339 (antibody, V domains shown, Light-chain-shuffled variant of XPA.85.017) VH: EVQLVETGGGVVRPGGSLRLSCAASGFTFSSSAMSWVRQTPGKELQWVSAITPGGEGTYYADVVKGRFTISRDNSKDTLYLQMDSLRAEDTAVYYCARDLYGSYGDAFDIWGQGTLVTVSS VL: SYELTQPPSVSVAPGQTATITCSGDRLGDKFISWYQQKPGQSPLLVIFEDNERPSRIPERFSGSNSGNSATLTISGTQAVDEADYYCQAWDSSWVFGGGTQLTVL', 'nM', 1.95),
  ('XPA.85.341 (antibody, V domains shown, Light-chain-shuffled variant of XPA.85.017) VH: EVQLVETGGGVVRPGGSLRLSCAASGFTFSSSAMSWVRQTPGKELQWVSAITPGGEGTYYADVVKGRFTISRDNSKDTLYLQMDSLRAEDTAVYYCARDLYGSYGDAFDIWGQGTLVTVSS VL: SYELTQPSSVSVSPGQTASITCSGDKLGEKYASWYQQKPGQSPVLVMFEDTKRPSGIPERFSGSNSGNTATLTISGTQAEDEADYYCQAWDSSWVFGGGTQLTVL', 'nM', 2.15);

--- query ---
Request: If you can, please state the reported EC50 of PTH(1-34), cAMP assay, with 267 nM IgG value of XPA.85.335 (antibody, V domains shown, Light-chain-shuffled variant of XPA.85.017) VH: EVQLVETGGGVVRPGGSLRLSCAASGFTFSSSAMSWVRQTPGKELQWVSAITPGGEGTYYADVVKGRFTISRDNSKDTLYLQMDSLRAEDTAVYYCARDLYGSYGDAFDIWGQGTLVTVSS VL: QSVLTQPPSVSAAPGQRVTISCSGNTSNIGNNFVSWYQQLPGTAPKLLIYDDNKRPSGIPDRFSGSKSGTSATLGISGLQTGDEADYYCGTWDNSLNPPWVFGGGTQLTVL .
Result: 4.54
